Target: Sorbitol dehydrogenase (Homo sapiens, UniProt Q00796)
Sequence (Q00796 whole entry): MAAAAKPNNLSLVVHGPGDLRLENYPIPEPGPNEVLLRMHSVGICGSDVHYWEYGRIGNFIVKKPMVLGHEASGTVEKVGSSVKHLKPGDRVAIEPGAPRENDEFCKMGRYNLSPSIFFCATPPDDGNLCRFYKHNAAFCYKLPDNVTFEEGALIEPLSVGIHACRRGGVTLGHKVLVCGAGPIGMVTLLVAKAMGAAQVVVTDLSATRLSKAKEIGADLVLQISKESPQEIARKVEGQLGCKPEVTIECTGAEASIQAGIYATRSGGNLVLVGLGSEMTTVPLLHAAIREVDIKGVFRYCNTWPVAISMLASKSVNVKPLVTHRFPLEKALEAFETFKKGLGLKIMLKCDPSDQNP
# maps each entry to its IC50
readout.type: IC50

smiles.text: C[C@@H](O)c1nccc(N2CCN(c3cnc4cc(Cl)c(Cl)cc4n3)CC2)n1
readout.type: IC50
value.observed: 120 nM
--
smiles.text: C[C@@H]1CN(c2ccnc(CCO)n2)C[C@H](C)N1c1ccnc([C@@H](C)O)n1
readout.type: IC50
value.observed: 10 nM
--
smiles.text: C[C@@H](O)c1nccc(N2CCN(c3nsc4ccccc34)CC2)n1
readout.type: IC50
value.observed: 12 nM
--
smiles.text: C[C@@H](O)c1nccc(N2CCN(c3nc4ccccc4o3)CC2)n1
readout.type: IC50
value.observed: 35 nM
--
smiles.text: C[C@@H]1CN(c2cnc3ccccc3n2)C[C@H](C)N1c1ccnc([C@@H](C)O)n1
readout.type: IC50
value.observed: 180 nM
--
smiles.text: C[C@@H](O)c1nccc(N2CCN(c3cnc4ccccc4n3)CC2)n1
readout.type: IC50
value.observed: 36 nM
--
smiles.text: Cc1nc2ccccc2nc1N1CCN(c2ccnc([C@@H](C)O)n2)CC1
readout.type: IC50
value.observed: 8 nM
--
smiles.text: C[C@@H](O)c1nccc(N2CCN(c3noc4ccccc34)CC2)n1
readout.type: IC50
value.observed: 37 nM
--
smiles.text: OCc1nccc(N2CCN(c3nc4ccccc4o3)CC2)n1
readout.type: IC50
value.observed: 190 nM
--
smiles.text: OCc1nccc(N2CCN(c3noc4ccccc34)CC2)n1
readout.type: IC50
value.observed: 120 nM
--
smiles.text: CN(C)S(=O)(=O)N1CCN(c2ccnc(CO)n2)CC1
readout.type: IC50
value.observed: 240 nM
--
smiles.text: C[C@@H](O)c1nccc(N2CCN(c3cnc4ccccc4n3)[C@@H](C)C2)n1
readout.type: IC50
value.observed: 99 nM
--
smiles.text: C[C@@H](O)c1nccc(N2CCN(c3nccc(-c4ccccc4)n3)CC2)n1
readout.type: IC50
value.observed: 67 nM
--
smiles.text: C[C@@H](O)c1nccc(N2CCN(c3nc(C(F)(F)F)cc(C(F)(F)F)n3)CC2)n1
readout.type: IC50
value.observed: 190 nM
--
smiles.text: C[C@@H]1CN(c2nc3ccncc3o2)C[C@H](C)N1c1ccnc([C@@H](C)O)n1
readout.type: IC50
value.observed: 270 nM
--
smiles.text: Cc1cc(CO)nc(N2CCN(c3ccnc([C@@H](C)O)n3)C[C@H]2C)n1
readout.type: IC50
value.observed: 140 nM
--
smiles.text: C[C@@H](O)c1nccc(N2CCN(c3nc4ncccc4o3)CC2)n1
readout.type: IC50
value.observed: 170 nM
